ASSAY_OVERVIEW: Half life in BALB/c mouse at 5 mg/kg, iv measured upto 48 hrs by LC-MS/MS analysis
Type: ADME, organism-based
CONDITIONS: in vivo
Property: half-life; scope: individual molecules
Unit h implied. Number only.

{"columns": ["MOLECULE", "half-life [h]"],
 "data": [
  ["Cc1ccc(-c2noc(C(C)c3ccc(-c4ccccc4)c(F)c3)n2)cc1NCc1ccc(C(=O)O)s1 (racemic)", 4.2]
]}

stdin: Specify reported half-life for the molecule shown: CC(c1nc(-c2ccc(-c3ccc(C(=O)O)s3)cc2)no1)c1cccc2ccccc12 (configuration not stated)
stdout: 5.8

---

ASSAY_OVERVIEW: Tmax in BALB/c mouse at 50 mg/kg, po measured upto 48 hrs by LC-MS/MS analysis
Assay type: ADME, organism-based
CONDITIONS: in vivo
Property: Tmax; scope: individual compounds
Unit h implied. Number only.

{"columns": ["COMPOUND", "OBSERVED_MEASUREMENT"],
 "data": [
  ["Cc1ccc(-c2noc(C(C)c3ccc(-c4ccccc4)c(F)c3)n2)cc1NCc1ccc(C(=O)O)s1 (racemic)", 1.25]
]}

stdin: Specify reported Tmax for the compound shown: CC(c1nc(-c2ccc(-c3ccc(C(=O)O)s3)cc2)no1)c1cccc2ccccc12 (configuration not stated)
stdout: 0.88
